Biological target: T1, Cynomolgus GPRC5D (Cynomolgus, UniProt Q9NZD1 1-343 (human entry))
T1 construct: Full length, on stably transfected cells (HEK293-cyGPRC5D, CHO-cyGPRC5D); also called cyGPRC5D
T1 chain: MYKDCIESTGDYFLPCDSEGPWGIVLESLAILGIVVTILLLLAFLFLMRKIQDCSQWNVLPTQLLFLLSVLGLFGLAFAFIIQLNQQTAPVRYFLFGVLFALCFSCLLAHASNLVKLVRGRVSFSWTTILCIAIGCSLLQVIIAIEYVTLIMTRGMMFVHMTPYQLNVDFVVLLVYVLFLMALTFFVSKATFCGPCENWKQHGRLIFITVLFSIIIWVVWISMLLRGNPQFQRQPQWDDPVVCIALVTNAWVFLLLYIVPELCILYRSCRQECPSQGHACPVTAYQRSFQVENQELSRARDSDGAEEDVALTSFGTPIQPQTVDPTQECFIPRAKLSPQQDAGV
Assay: flow cytometry, CHO-cyGPRC5D cells
assay_endpoint: binding result

// known answers, use as guide
>>> result("anti-GPRC5D chimeric antibody 14D1 (antibody, V domains shown) VH: EVQLQQSGPDLVKPGASVKMSCKASGYKFTSYVMYWVKQKTGQGLEWIGYINPYNDGTKYNEKFKGKATLTSDKSSSTAYMEFSSLTSEDSAVYYCVRGGMLTTRSLFAYWGQGTLVTVSA VL: DIQMTQSPSSLSASLGERVSLTCRASQEISGYFSWLQQKPDGTIKRLIYAASTLDSGVPKRFSGSRSGSDYSLTISSLESEDFADYYCLQYASYPPTFGGGTKLEIK")
"binds"
>>> result("anti-GPRC5D chimeric antibody 15A6 (antibody, V domains shown) VH: EVQLQQSGPELVKPGASVKMSCKASGYTFTNYVMYWVKQKPGQVLEWIGYINPYNDGTKYNEKFTGKATLTSDKSSSTAYMELSSLTSEDSAVYYCARGGMLTTRSLFVYWGQGTLVTVSA VL: DIQMTQSPSSLSASLGERVSLTCRASQEISGYFSWLQQKPDGTIKRLIYAASTLDSGVPKRFSGSRSGSDYSLTISSLESEDFADYYCLQYASYPPTFGGGTKLEIK")
"binds"
>>> result("anti-GPRC5D chimeric antibody 1C1 (antibody, V domains shown) VH: QAYLQQSGAELVRSGASVKMSCKASGYTFTSYNMHWVKQTPGQGLEWIGYIYPGNGGTNYNQKFKAKATLTADTSSSTAYMQISSLTSEDSAVYFCARGYGYRYWYFDVWGAGTTVTVSS VL: NIVLTQSPAIMSASPGEKVTMTCSASSSVRFMHWYQQKSGTSPKRWIYDTSKVASGVPARFSGSGSGTSYSLTIRSMEAEDAATYYCQQWSSNPLTFGAGTKLELK")
"binds"
>>> result("anti-GPRC5D chimeric antibody 12A4 (antibody, V domains shown) VH: EVQLQQSGPELVKPGASVKMSCKASEYTFTNYVMYWVKQKPGQGLEWIGYINPYNDGTKYNEKFKGKATLTSDKSSSTAYMELSSLTSEDSAVYYCVRGGMLTTRSLFTYWGQGTLVTVSA VL: DIQMTQSPSSLSASLGERVSLTCRASQRISGYLSWLQQKPDGTIKRLIYAASTLDSGVPKRFSGSRSGSDYSLTISSLESEDFADYYCLQYASYPPTFGGGTKLEIK")
"binds"

Any idea what binding result was measured for anti-GPRC5D chimeric antibody 10B1 (antibody, V domains shown) VH: QVQLQQSGAELARPGASVKMSCKASGYIFTSYTMYWVKQRPGQGLEWIGYINPSSGYTNYNQKFKDKATLTADKSSSTAYMQLSSLTSEDSAVYYCARWGGNERLYYYAMDYWGQGTSVTVSS VL: QIVLTQSPAIMSASPGEKVTITCSASSSVSYMYWFQQKPGTSPKLWIYGTSNLASGVPARFSGSGSGTSYSLTISRMEAEDAATYYCQQRSSYPLTFGAGTKLELK ?
binds

Ref: patent US20260116966A1
